# Tested on: vancomycin-resistant enterococci
# experiment-summary: broth micro-dilution, mean geometric MIC
# Type: cell-based, Enterococcus faecium and Enterococcus faecalis
# run-parameters: enterococci, 24-hour incubation
measured-metric: mean geometric MIC, Vancomycin Resistant Strains

{"columns": ["compound", "measured-value"],
 "data": [
  ["CCCCCCCCCOc1ccc(CNC2(C)CC(OC3C(Oc4c5cc6cc4Oc4ccc(cc4Cl)C(OC4CC(C)(N)C(O)C(C)O4)C4NC(=O)C(NC(=O)C6NC(=O)C(CC(N)=O)NC(=O)C(NC(=O)C(CC(C)C)NC)C(O)c6ccc(c(Cl)c6)O5)c5ccc(O)c(c5)-c5c(O)cc(O)cc5C(C(=O)O)NC4=O)OC(CO)C(O)C3O)OC(C)C2O)cc1 (stereo not drawn)", "1.0 µg/mL"],
  ["CCOc1cc(CNC2(C)CC(OC3C(Oc4c5cc6cc4Oc4ccc(cc4Cl)C(OC4CC(C)(N)C(O)C(C)O4)C4NC(=O)C(NC(=O)C6NC(=O)C(CC(N)=O)NC(=O)C(NC(=O)C(CC(C)C)NC)C(O)c6ccc(c(Cl)c6)O5)c5ccc(O)c(c5)-c5c(O)cc(O)cc5C(C(=O)O)NC4=O)OC(CO)C(O)C3O)OC(C)C2O)ccc1OCC1CCCCC1 (stereo not drawn)", "0.84 µg/mL"],
  ["CNC(CC(C)C)C(=O)NC1C(=O)NC(CC(N)=O)C(=O)NC2C(=O)NC3C(=O)NC(C(=O)NC(C(=O)O)c4cc(O)cc(O)c4-c4cc3ccc4O)C(OC3CC(C)(N)C(O)C(C)O3)c3ccc(c(Cl)c3)Oc3cc2cc(c3OC2OC(CO)C(O)C(O)C2OC2CC(C)(NCc3ccc(Oc4cccc(Cl)c4)c([N+](=O)[O-])c3)C(O)C(C)O2)Oc2ccc(cc2Cl)C1O (stereo not drawn)", "0.71 µg/mL"],
  ["CNC(CC(C)C)C(=O)NC1C(=O)NC(CC(N)=O)C(=O)NC2C(=O)NC3C(=O)NC(C(=O)NC(C(=O)O)c4cc(O)cc(O)c4-c4cc3ccc4O)C(OC3CC(C)(N)C(O)C(C)O3)c3ccc(c(Cl)c3)Oc3cc2cc(c3OC2OC(CO)C(O)C(O)C2OC2CC(C)(NCc3cnc4ccccc4c3)C(O)C(C)O2)Oc2ccc(cc2Cl)C1O (stereo not drawn)", "4.7 µg/mL"],
  ["CCCCCC1CCC(c2ccc(CNC3(C)CC(OC4C(Oc5c6cc7cc5Oc5ccc(cc5Cl)C(OC5CC(C)(N)C(O)C(C)O5)C5NC(=O)C(NC(=O)C7NC(=O)C(CC(N)=O)NC(=O)C(NC(=O)C(CC(C)C)NC)C(O)c7ccc(c(Cl)c7)O6)c6ccc(O)c(c6)-c6c(O)cc(O)cc6C(C(=O)O)NC5=O)OC(CO)C(O)C4O)OC(C)C3O)cc2)CC1 (stereo not drawn)", "4.0 µg/mL"],
  ["CC(C)CC(C(=O)NC1C(=O)NC(CC(N)=O)C(=O)NC2C(=O)NC3C(=O)NC(C(=O)NC(C(=O)O)c4cc(O)cc(O)c4-c4cc3ccc4O)C(OC3CC(C)(N)C(O)C(C)O3)c3ccc(c(Cl)c3)Oc3cc2cc(c3OC2OC(CO)C(O)C(O)C2OC2CC(C)(N)C(O)C(C)O2)Oc2ccc(cc2Cl)C1O)N(C)Cc1ccc(-c2ccc(Cl)cc2)cc1.O=C(O)C(F)(F)F (stereo not drawn)", "9.5 µg/mL"]
]}
